# experimental-target: β-adrenergic receptors (Rattus norvegicus)
# Construct: β-adrenergic receptors in intact living cells; endogenous in cells; host or cells: C6 rat glioma cells, 2B subclone
# Sequence (P18090 whole entry): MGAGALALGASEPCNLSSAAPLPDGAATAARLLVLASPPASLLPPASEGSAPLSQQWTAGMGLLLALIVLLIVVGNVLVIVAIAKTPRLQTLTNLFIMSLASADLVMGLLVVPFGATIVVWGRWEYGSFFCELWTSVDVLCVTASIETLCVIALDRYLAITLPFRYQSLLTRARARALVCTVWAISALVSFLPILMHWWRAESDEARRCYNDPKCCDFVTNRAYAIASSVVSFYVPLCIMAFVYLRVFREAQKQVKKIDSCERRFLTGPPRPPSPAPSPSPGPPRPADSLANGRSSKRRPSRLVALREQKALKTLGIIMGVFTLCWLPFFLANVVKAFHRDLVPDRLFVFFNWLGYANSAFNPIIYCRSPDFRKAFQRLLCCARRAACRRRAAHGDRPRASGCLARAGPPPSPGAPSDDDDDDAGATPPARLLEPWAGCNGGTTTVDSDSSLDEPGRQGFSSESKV
# assay-remarks: Displacement of specific (125I)-iodohydroxybenzylpindolol binding, acute or after washing, in intact C6 rat glioma cells
# recorded-conditions: 40 min at 37° C.; corrected for competition by (125I)-iodohydroxybenzylpindolol; read-out: apparent KD in blocking one-half of the β-receptors
experimental-readout: pKd
Conceptually, pKd converts a concentration in mol/L into minus its log10.

Ask: Request the reported pKd associated with CC(C)(Cc1ccc(N)cc1)NCC(O)COc1cccc2ccccc12 (stereo not shown) [aminobenzylpropranolol]
Reply: 8.10

----------
# Test system: rat atria (β-adrenergic receptors)
# assay-remarks: Isoproterenol-increased tension development in isolated rat atria
# Assay type: cell-based
# recorded-conditions: Rattus norvegicus, first dose response curve, control rat atria; read-out: apparent KAct of isoproterenol
experimental-readout: EC50 (nM)
Supply the numeric figure in nM, leaving out any unit text.

Ask: Which EC50 is reported with rat atria (β-adrenergic receptors) for this entry: CC(C)NCC(O)c1ccc(O)c(O)c1 (stereo not shown) [isoproterenol, N-isopropylnoradrenaline, reference compound] ?
Reply: 0.9

----------
# Test system: rat atria (β-adrenergic receptors)
# assay-remarks: Isoproterenol-increased tension development in isolated rat atria
# Type: cell-based
# recorded-conditions: Rattus norvegicus, second dose response curve, control rat atria; read-out: apparent KAct of isoproterenol
experimental-readout: EC50 (nM)
Field format: number, assumed nM, no unit text.

Ask: Give EC50 (rat atria (β-adrenergic receptors)) of the following compound: CC(C)NCC(O)c1ccc(O)c(O)c1 (stereo not shown) [isoproterenol, N-isopropylnoradrenaline, reference compound]
Reply: 4.7
